Where these numbers come from: ChEMBL document CHEMBL1949660

Molecular target: UniProtKB Q9Y5N1
Sequence (Q9Y5N1 whole entry): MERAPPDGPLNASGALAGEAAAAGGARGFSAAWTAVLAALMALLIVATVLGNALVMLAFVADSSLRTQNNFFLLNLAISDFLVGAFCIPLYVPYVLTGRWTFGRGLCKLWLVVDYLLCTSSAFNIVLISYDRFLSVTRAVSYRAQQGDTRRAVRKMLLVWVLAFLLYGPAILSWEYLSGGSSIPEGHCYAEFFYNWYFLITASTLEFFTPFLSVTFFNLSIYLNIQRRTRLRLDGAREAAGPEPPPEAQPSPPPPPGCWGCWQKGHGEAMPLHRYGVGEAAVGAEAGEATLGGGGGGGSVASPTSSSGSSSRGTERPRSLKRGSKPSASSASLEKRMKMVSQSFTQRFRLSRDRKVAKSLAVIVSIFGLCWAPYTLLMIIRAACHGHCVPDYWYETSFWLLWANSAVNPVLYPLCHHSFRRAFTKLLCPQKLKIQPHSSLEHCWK
Ki strictly under 6 nM means met; at 6 nM or over means not met.

                                        smi  classlabel
0  CC1(C)CC(c2ccc(OC3CCN(C4CCC4)CC3)cc2)=NNC1=O         met
1  Cc1cc(=O)[nH]nc1-c1ccc(OC2CCN(C3CCC3)CC2)cc1         met
2  CC(C)N1CCC(Oc2ccc(-c3ccc(=O)n(C)n3)cc2)CC1     not met
3  CC(C)n1nc(-c2ccc(OC3CCN(C4CCC4)CC3)nc2)ccc1=O     not met
4  O=c1ccc(-c2ccc(OC3CCN(C4CCC4)CC3)nc2)n[nH]1     not met
5  O=C1CCC(c2ccc(OC3CCN(C4CCC4)CC3)cc2)=NN1         met
6  O=c1ccc(-c2ccc(OC3CCN(C4CCC4)CC3)nc2)nn1-c1ccccn1     not met
7  O=c1ccc(-c2ccc(OC3CCN(C4CCCC4)CC3)nc2)n[nH]1     not met
8  CC1(C)CC(c2ccc(OC3CCN(C4CCC4)CC3)c(F)c2)=NNC1=O     not met

###

Assay: Plasma protein binding in rat
Format: ADME, cell-free
Settings: read-out: PPB
measurementType: fraction unbound

In [3]: df
Out[3]:
                                        smi   measurementtype  measuredresult
0  CC1(C)CC(c2ccc(OC3CCN(C4CCC4)CC3)cc2)=NNC1=O  fraction unbound             0.5

###

Experiment: Half life in rat liver microsomes
Type: ADME, Microsome
measurementType: half-life

>>> print(df.to_string())
                                        smi  measuredresult
0  O=c1ccc(-c2ccc(OC3CCN(C4CCC4)CC3)cc2)n[nH]1        > 40 min
1  CC1(C)CC(c2ccc(OC3CCN(C4CCC4)CC3)cc2)=NNC1=O        > 40 min

###

Assay: Plasma protein binding in human
Type: ADME, cell-free
Details: read-out: PPB
measurementType: fraction unbound

In [3]: df
Out[3]:
                                        smi   measurementtype  measuredresult
0  CC1(C)CC(c2ccc(OC3CCN(C4CCC4)CC3)cc2)=NNC1=O  fraction unbound             0.5

###

Target: Cytochrome P450 2C9 (Homo sapiens)
Sequence (P11712 whole entry): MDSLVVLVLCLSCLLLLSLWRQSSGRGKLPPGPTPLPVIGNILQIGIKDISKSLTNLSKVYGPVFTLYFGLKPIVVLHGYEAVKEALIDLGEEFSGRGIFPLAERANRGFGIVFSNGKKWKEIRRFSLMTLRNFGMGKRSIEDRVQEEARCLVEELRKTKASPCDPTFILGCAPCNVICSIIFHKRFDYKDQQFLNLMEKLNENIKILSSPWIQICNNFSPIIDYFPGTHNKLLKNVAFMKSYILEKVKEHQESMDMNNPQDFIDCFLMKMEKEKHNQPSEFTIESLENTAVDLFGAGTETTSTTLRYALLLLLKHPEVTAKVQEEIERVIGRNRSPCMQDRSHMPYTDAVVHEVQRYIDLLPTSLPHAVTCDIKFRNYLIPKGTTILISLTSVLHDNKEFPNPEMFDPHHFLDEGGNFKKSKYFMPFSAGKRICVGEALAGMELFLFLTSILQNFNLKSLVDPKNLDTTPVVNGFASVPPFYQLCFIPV
measurementType: IC50

>>> df
                                        smi                      measuredtarget  measuredresult
0  O=c1ccc(-c2ccc(OC3CCN(C4CCC4)CC3)cc2)n[nH]1  Cytochrome P450 2C9 (Homo sapiens)         > 30 µM

###

Experiment: Apparent permeability across human Caco2 cells
Type: ADME, cell-based
Conditions: Caco-2
measurementType: Papp (×10⁻⁶ cm/s)

                                        smi   unitlabel  measuredresult
0  O=c1ccc(-c2ccc(OC3CCN(C4CCC4)CC3)cc2)n[nH]1  ×10⁻⁶ cm/s            16.5
1  CC1(C)CC(c2ccc(OC3CCN(C4CCC4)CC3)cc2)=NNC1=O  ×10⁻⁶ cm/s              27

###

Target: UniProt:Q12809
Sequence (Q12809 whole entry): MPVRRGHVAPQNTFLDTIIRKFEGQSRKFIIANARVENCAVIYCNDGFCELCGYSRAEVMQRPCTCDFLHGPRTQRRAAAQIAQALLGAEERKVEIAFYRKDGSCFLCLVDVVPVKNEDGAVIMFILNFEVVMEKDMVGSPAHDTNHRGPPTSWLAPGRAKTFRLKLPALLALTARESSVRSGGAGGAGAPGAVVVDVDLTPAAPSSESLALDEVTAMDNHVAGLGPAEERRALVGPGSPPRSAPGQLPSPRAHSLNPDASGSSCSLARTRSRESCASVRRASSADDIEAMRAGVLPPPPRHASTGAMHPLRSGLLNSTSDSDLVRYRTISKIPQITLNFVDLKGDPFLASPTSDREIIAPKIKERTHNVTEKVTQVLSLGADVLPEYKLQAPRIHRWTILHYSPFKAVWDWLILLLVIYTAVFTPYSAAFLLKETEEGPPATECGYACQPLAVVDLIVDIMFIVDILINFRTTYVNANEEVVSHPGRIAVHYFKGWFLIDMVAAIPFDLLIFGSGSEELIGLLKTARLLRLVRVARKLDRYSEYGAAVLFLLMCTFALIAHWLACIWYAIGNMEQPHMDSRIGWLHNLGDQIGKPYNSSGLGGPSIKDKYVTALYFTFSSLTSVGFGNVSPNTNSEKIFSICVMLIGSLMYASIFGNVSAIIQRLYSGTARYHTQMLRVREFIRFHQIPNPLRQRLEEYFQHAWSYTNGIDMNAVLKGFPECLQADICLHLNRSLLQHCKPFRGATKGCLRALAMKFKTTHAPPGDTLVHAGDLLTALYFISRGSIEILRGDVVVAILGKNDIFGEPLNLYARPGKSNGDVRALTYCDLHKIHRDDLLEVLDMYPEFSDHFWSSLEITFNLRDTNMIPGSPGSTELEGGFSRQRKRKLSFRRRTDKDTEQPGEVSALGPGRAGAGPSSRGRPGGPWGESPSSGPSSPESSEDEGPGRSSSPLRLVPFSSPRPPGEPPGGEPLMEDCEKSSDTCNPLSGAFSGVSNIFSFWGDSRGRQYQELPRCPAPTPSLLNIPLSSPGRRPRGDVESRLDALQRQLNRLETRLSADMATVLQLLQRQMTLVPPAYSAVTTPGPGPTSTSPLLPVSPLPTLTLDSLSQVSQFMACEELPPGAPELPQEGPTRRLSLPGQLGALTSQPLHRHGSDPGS
Test: Inhibition of human Erg by patch clamp assay
Reported IC50 is given for each of the following molecules.
measurementType: IC50 (µM)

>>> print(df.to_string())
                                        smi  measurementtype  measuredresult
0  CC1(C)CC(c2ccc(OC3CCN(C4CCC4)CC3)cc2)=NNC1=O             IC50              21
1  O=c1ccc(-c2ccc(OC3CCN(C4CCC4)CC3)nc2)n[nH]1             IC50               9
2  O=c1ccc(-c2ccc(OC3CCN(C4CCC4)CC3)cc2)n[nH]1             IC50               8

###

Reported bioavailability is given for each of the following compounds.
Assay: Oral bioavailability in rat at 5 mg/kg
Format: ADME, organism-based
Conditions: in vivo
measurementType: bioavailability (%)

                                        smi  measuredresult
0  C[C@H]1CC(=O)NN=C1c1ccc(OC2CCN(C3CCC3)CC2)cc1              56
1  O=c1ccc(-c2ccc(OC3CCN(C4CCC4)CC3)nc2)n[nH]1              21
2  O=c1ccc(-c2ccc(OC3CCN(C4CCC4)CC3)cc2)n[nH]1              35
3  CC1(C)CC(c2ccc(OC3CCN(C4CCC4)CC3)cc2)=NNC1=O              33

###

Test: Half life in rat at 1 mg/kg, iv
Format: ADME, organism-based
Set-up: dose 1 mg/kg, route intravenous
Details: in vivo
measurementType: half-life

                                        smi  measurementtype  measuredresult
0  CC1(C)CC(c2ccc(OC3CCN(C4CCC4)CC3)cc2)=NNC1=O        half-life           1.9 h
1  O=c1ccc(-c2ccc(OC3CCN(C4CCC4)CC3)cc2)n[nH]1        half-life           2.3 h
2  C[C@H]1CC(=O)NN=C1c1ccc(OC2CCN(C3CCC3)CC2)cc1        half-life           4.4 h

###

Experiment: Cmax in rat at 5 mg/kg, po
Format: ADME, organism-based
Design: dose 5 mg/kg, route oral
Conditions: in vivo
measurementType: Cmax (ng/mL)

                                        smi  measuredresult
0  C[C@H]1CC(=O)NN=C1c1ccc(OC2CCN(C3CCC3)CC2)cc1             253
1  O=c1ccc(-c2ccc(OC3CCN(C4CCC4)CC3)cc2)n[nH]1             441
2  CC1(C)CC(c2ccc(OC3CCN(C4CCC4)CC3)cc2)=NNC1=O             270

###

Target: Histamine H3 receptor (Rattus norvegicus)
Sequence (Q9QYN8 whole entry): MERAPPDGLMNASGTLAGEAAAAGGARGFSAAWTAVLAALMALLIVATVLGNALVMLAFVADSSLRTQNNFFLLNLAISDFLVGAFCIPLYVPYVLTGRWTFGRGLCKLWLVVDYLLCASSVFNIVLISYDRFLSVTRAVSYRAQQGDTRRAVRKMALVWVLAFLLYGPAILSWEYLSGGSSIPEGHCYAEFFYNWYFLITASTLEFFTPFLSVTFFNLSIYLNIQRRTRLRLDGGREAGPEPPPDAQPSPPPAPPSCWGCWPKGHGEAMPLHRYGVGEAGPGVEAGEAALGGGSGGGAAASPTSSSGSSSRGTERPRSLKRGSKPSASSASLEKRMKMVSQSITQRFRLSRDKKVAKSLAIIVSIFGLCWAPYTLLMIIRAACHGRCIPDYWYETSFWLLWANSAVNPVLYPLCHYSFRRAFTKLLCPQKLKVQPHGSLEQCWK
measurementType: Ki (nM)

In [3]: df
Out[3]:
                                         smi  measurementtype  measuredresult
 0  O=c1ccc(-c2ccc(OC3CCN(C4CCC4)CC3)cc2)n[nH]1               Ki             2.2
 1  CC(C)N1CCC(Oc2ccc(-c3ccc(=O)n(C)n3)cc2)CC1               Ki              46
 2  Cn1nc(-c2ccc(OC3CCN(C4CCCC4)CC3)nc2)ccc1=O               Ki              12
 3  O=c1ccc(-c2ccc(OC3CCN(C4CCC4)CC3)cc2)nn1-c1ccccn1               Ki              15
 4  CC(C)n1nc(-c2ccc(OC3CCN(C4CCC4)CC3)nc2)ccc1=O               Ki             9.4
 5  CC1(C)CC(c2ccc(OC3CCN(C4CCC4)CC3)nc2)=NNC1=O               Ki              28
 6  Cc1cc(=O)[nH]nc1-c1ccc(OC2CCN(C3CCC3)CC2)cc1               Ki             6.3
 7  C[C@@H]1CC(=O)NN=C1c1ccc(OC2CCN(C3CCC3)CC2)cc1               Ki             9.6
 8  CC1(C)CC(c2ccc(OC3CCN(C4CCC4)CC3)c(F)c2)=NNC1=O               Ki             7.2
 9  O=c1ccc(-c2ccc(OC3CCN(C4CCC4)CC3)nc2)n[nH]1               Ki              19
10  O=c1ccc(-c2ccc(OC3CCN(C4CCCC4)CC3)nc2)n[nH]1               Ki              51

###

Reported half-life is given for each of the following compounds.
Experiment: Half life in monkey liver microsomes
Assay type: ADME, Macaca mulatta, Microsome
Conditions: rhesus monkey
measurementType: half-life

>>> print(df.to_string())
                                        smi  measuredresult
0  CC1(C)CC(c2ccc(OC3CCN(C4CCC4)CC3)cc2)=NNC1=O        > 40 min
1  O=c1ccc(-c2ccc(OC3CCN(C4CCC4)CC3)cc2)n[nH]1        > 40 min

###

Reported half-life is given for each of the following compounds.
Experiment: Half life in human liver microsomes
Type: ADME, Microsome
measurementType: half-life

>>> df
                                        smi  measuredresult
0  O=c1ccc(-c2ccc(OC3CCN(C4CCC4)CC3)cc2)n[nH]1        > 40 min
1  CC1(C)CC(c2ccc(OC3CCN(C4CCC4)CC3)cc2)=NNC1=O        > 40 min
